Would you mind telling me the reported pIC50 of each entry?
target: KRAS G12C (Homo sapiens, UniProt P01116, G12C); assay: KRAS G12C NEA-HTRF experiment (SOS1-catalyzed displacement of GDP by GTP)
Sequence (P01116 1-188 isoform P01116-2 G12C): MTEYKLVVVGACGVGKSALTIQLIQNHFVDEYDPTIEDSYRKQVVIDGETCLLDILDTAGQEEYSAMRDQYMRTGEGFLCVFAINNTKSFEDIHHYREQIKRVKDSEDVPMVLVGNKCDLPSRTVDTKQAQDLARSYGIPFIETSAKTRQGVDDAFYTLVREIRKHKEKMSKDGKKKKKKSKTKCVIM
Give bare numbers, as −log10 of the molar value.

C=CC(=O)N1CCN2C(=O)c3c(N4CCC[C@@H]4C)nc(-c4c(O)cccc4F)c(Cl)c3OC[C@H]2C1 ... 7.18

// each listed compound needs a value for pIC50
1. C=CC(=O)N1CCN2C(=O)c3c(N4CCC(N(C)C)C4(C)C)nc(-c4c(O)cccc4F)c(Cl)c3OC[C@H]2C1 (stereo partly shown)
2. C=CC(=O)N1CCN2C(=O)c3c(N4CCN(C)C[C@@H]4C)nc(-c4c(O)cccc4Cl)c(Cl)c3OC[C@H]2C1 [Z452]
3. C=CC(=O)N1CCN2C(=O)c3c(N4C[C@@](C)(O)CC4(C)C)nc(-c4c(O)cccc4F)c(F)c3OC[C@H]2C1 (single isomer, unassigned) [Z256b-1]
4. C=CC(=O)N1CCN2C(=O)c3c(N4CC(N5CCOCC5)CC4(C)C)nc(-c4c(O)cccc4F)c(Cl)c3OC[C@H]2C1 (stereo partly shown)
5. C=CC(=O)N1CCN2C(=O)c3c(N4CCN(C)C(C)C4C)nc(-c4c(O)cccc4F)c(Cl)c3OC[C@H]2C1 (stereo partly shown) [Z369]
6. C=CC(=O)N1CCN2C(=O)c3c(N4CC(O)CC4(C)C)nc(-c4ccccc4Cl)c(F)c3OC[C@H]2C1 (stereo partly shown)

1: 7.10; 2: 7.33; 3: 7.48; 4: 8.00; 5: 7.16; 6: 7.06
